// provenance: patent US8735406B2

Tested On: FAAH (Rattus norvegicus, UniProt P97612)
Construct: Preparation of Rat Brain Membranes Preparations (FAAH Enzyme Solution); from tissue; host or cells: rat cerebrum (brain membrane preparation)
Sequence (P97612 whole entry): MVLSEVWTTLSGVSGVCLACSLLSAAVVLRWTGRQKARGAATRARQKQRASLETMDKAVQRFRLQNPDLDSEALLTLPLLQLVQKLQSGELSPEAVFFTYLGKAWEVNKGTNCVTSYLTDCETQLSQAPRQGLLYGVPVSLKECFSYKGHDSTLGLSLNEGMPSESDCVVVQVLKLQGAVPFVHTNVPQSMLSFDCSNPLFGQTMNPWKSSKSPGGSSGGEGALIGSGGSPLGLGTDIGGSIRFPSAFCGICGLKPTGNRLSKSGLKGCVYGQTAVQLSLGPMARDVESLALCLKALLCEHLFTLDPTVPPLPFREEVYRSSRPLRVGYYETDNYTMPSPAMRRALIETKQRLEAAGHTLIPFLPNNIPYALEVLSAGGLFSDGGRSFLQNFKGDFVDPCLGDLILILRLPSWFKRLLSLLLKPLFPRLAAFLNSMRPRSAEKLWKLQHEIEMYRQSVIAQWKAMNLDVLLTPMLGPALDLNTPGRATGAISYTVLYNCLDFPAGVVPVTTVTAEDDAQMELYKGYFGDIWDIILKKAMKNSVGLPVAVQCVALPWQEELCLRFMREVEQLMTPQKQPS
Procedure Summary: Determination of FAAH inhibitory activity in rat (rat brain membrane preparations, [3H]-anandamide hydrolysis)
Assay type: biochemical
Assay Context: rat brain membrane preparations; 100 nM test substance; read-out: FAAH Inhibition, Inhibition Rate at 100 nM
Parameter Measured: inhibition at 0.1 µM (%)

COc1cccc(-c2ncc3c(n2)n(C)c(=O)n3C(=O)N2CCN(CCc3ccccc3)CC2)c1: 97

[P] Cn1c(=O)n(C(=O)N2CCCC2)c2cnc(/C=C/c3cccc(C(F)(F)F)c3)nc21
[Q] Cn1c(=O)n(C(=O)N2CCN(c3ccc(C(F)(F)F)cc3)CC2)c2cnc(-c3ccccc3)nc21
query: Consider P and Q . Which of these has its inhibition at 0.1 µM at a higher number? I would appreciate it if you answered with the label of your choice.
result: Q

[A] COc1cccc(-c2ncc3c(n2)n(C)c(=O)n3C(=O)N(C)CCc2ccncc2)c1
[B] Cn1c(=O)n(C(=O)N2CCCC2)c2cnc(-c3cccc(OCc4ccccc4)c3)nc21
query: When the recorded inhibition at 0.1 µM values are compared, which is smaller: that of A or that of B ? I would appreciate it if you answered with the label of your choice.
result: B

[1] Cn1c(=O)n(C(=O)N2CCCC2)c2cnc(C3=CCCCC3)nc21
[2] Cc1ccc(OCCCc2ncc3c(n2)n(C(=O)N(C)C)c(=O)n3C)cc1
query: When the recorded inhibition at 0.1 µM values are compared, which is smaller: that of 1 or that of 2 ? I would appreciate it if you answered with the label of your choice.
result: 2

###

Tested On: FAAH (Rattus norvegicus, UniProt P97612)
Construct: Preparation of Rat Brain Membranes Preparations (FAAH Enzyme Solution); from tissue; host or cells: rat cerebrum (brain membrane preparation)
Procedure Summary: Determination of FAAH inhibitory activity in rat (rat brain membrane preparations, [3H]-anandamide hydrolysis)
Assay type: biochemical
Assay Context: rat brain membrane preparations; 100 nM test substance; read-out: FAAH Inhibition, Inhibition Rate at 100 nM
Parameter Measured: inhibition at 0.1 µM (%)

Cn1c(=O)n(C(=O)N2CCCC2)c2cnc(-c3ccc(F)nc3)nc21: 99
CCOc1ccc(N2CCN(C(=O)n3c(=O)n(C)c4nc(-c5cccc(OC)c5)ncc43)CC2)cc1: 100
CCOCc1ncc2c(n1)n(C)c(=O)n2C(=O)N1CC(c2ccccc2)C1: 108
COCc1ncc2c(n1)n(C)c(=O)n2C(=O)N1CC[C@H](Oc2ccccc2F)C1: 110
COc1cccc(-c2ncc3c(n2)n(C)c(=O)n3C(=O)N2CCC(CCc3ccc(Cl)cc3)CC2)c1: 98
COCc1ncc2c(n1)n(C)c(=O)n2C(=O)N1CC[C@H](Oc2ccc(Cl)cc2)C1: 98
Cc1cccc(Cc2ncc3c(n2)n(C)c(=O)n3C(=O)N2CCCC2)c1: 98
COCCc1ncc2c(n1)n(C)c(=O)n2C(=O)N1CC(c2ccc(C(F)(F)F)cc2)C1: 100
Cn1c(=O)n(C(=O)N2CCC2)c2nc(COc3ccccc3Cl)ncc21: 92
COc1cccc(CCc2ncc3c(n2)n(C(=O)N(C)C)c(=O)n3C)c1: 70
Cn1c(=O)n(C(=O)N2CCCC2)c2cnc(/C=C/c3ccc(Cl)cc3)nc21: 87
CCN(C)C(=O)n1c(=O)n(C)c2nc(-c3ccnc(F)c3)ncc21: 100
CCN(C)C(=O)n1c(=O)n(C)c2cnc(-c3cccc(OC(F)(F)F)c3)nc21: 102
Cn1c(=O)n(C(=O)N2CCC2)c2nc(CCc3cccc(C(F)F)c3)ncc21: 84
Cc1ccc(CCc2ncc3c(n2)n(C(=O)N2CCC2)c(=O)n3C)cc1C: 99
CC(C)n1c(=O)n(C(=O)N2CCCC2)c2cnc(-c3ccccc3)nc21: 99
CN(C)C(=O)n1c(=O)n(C)c2cnc(CCc3cccc(C(F)(F)F)c3)nc21: 92
